B1: CPEB3 Ribozyme (parent)
chain: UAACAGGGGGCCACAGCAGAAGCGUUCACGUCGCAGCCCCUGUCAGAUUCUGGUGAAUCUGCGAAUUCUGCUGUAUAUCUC

variants of: B1; assay: self-cleavage, relative activity (ratio to wild type); higher = more cleavage; in vitro, sequencing
Readings of self-cleavage for the listed variants

- mutation.label: "C39A U43A"
  self-cleavage: 0.38
- mutation.label: "U25A G42A"
  self-cleavage: 0.2
- mutation.label: "U54A U69A"
  self-cleavage: 0.86
- mutation.label: "G6A G55U"
  self-cleavage: 0.4
- mutation.label: "C12A U74G"
  self-cleavage: 1.28
- mutation.label: "A13G A64C"
  self-cleavage: 0.46
- mutation.label: "G36C U78C"
  self-cleavage: 0.14
- mutation.label: "U72G U80C"
  self-cleavage: 1.19
- mutation.label: "A21G U26G"
  self-cleavage: 0.25
- mutation.label: "G19A U43A"
  self-cleavage: 0.36
- mutation.label: "A15U C71U"
  self-cleavage: 0.33
- mutation.label: "U60C A64U"
  self-cleavage: 0.31
- mutation.label: "G46U A64U"
  self-cleavage: 0.18
- mutation.label: "A20U C39A"
  self-cleavage: 0.21
- mutation.label: "U26A C68A"
  self-cleavage: 0.31
- mutation.label: "G7U U43C"
  self-cleavage: 0.38
- mutation.label: "C34G U41C"
  self-cleavage: 0.14
- mutation.label: "G53U"
  self-cleavage: 1.21
- mutation.label: "U66C C81A"
  self-cleavage: 0.54
- mutation.label: "A5G C79A"
  self-cleavage: 1.01
- mutation.label: "A3G G46C"
  self-cleavage: 0.39
- mutation.label: "A21G C79U"
  self-cleavage: 0.76
- mutation.label: "U41G U69C"
  self-cleavage: 0.19
- mutation.label: "U43C U54C"
  self-cleavage: 0.32
- mutation.label: "A13G A57C"
  self-cleavage: 0.33
- mutation.label: "G7A U54G"
  self-cleavage: 0.22
- mutation.label: "U31A U66C"
  self-cleavage: 0.26
- mutation.label: "G10U A35G"
  self-cleavage: 0.32
- mutation.label: "C44G U49A"
  self-cleavage: 0.23

Cited source: the RNAGym collection of RNA variant scans (doi:10.1093/nar/gkz1192)
